Tested on: MCF7
Experiment: Antimitotic activity against human MCF7 cells expressing p53 mutant
MEASURED_METRIC: IC50 (nM)
Answers are plain numbers, in nM.

MOL | MEASURED_TARGET | DISPLAY_UNIT | IC50
CN[C@H](C(=O)N[C@H](C(=O)N(C)[C@H](/C=C(\C)C(=O)O)C(C)C)C(C)(C)C)C(C)(C)c1ccccc1 | MCF7 | nM | 0.09
CN[C@@H](Cc1ccccc1)C(=O)N[C@H](C(=O)N(C)[C@H](/C=C(\C)C(=O)O)C(C)C)C(C)(C)C | MCF7 | nM | 5000
CN[C@@H](Cc1cn(C)c2ccccc12)C(=O)N[C@H](C(=O)N(C)[C@H](/C=C(\C)C(=O)O)C(C)C)C(C)(C)C | MCF7 | nM | 300
CN[C@H](C(=O)N[C@H](C(=O)N(C)[C@@H](C)/C=C(\C)C(=O)O)C(C)(C)C)C(C)(C)c1cn(C)c2ccccc12 | MCF7 | nM | 4
CN[C@H](C(=O)N[C@H](C(=O)N(C)[C@H](/C=C(\C)C(=O)OC)C(C)C)C(C)(C)C)C(C)(C)c1ccccc1 | MCF7 | nM | 2

For each of the items listed, what is its IC50?
1. CC[C@H](NC(=O)[C@@H](NC)C(C)(C)c1cn(C)c2ccccc12)C(=O)N(C)[C@H](/C=C(\C)C(=O)O)C(C)C
2. CN[C@H](C(=O)N[C@H](C(=O)N(C)[C@H](/C=C(\C)C(=O)OC)C(C)C)C(C)(C)C)C(C)(C)c1cn(C)c2ccccc12
3. C/C(=C\[C@H](C(C)C)N(C)C(=O)[C@@H](NC(=O)[C@@H](N)C(C)(C)c1cn(C)c2ccccc12)C(C)(C)C)C(=O)O
4. CN[C@H](C(=O)N[C@H](C(=O)N(C)[C@H](/C=C(\C)C(=O)O)C(C)C)C(C)(C)C)C(C)(C)c1c[nH]c2ccccc12
5. CCOC(=O)/C(C)=C/[C@H](C(C)C)N(C)C(=O)[C@@H](NC(=O)[C@@H](NC)C(C)(C)c1ccccc1)C(C)(C)C
6. CN[C@H](C(=O)N[C@H](C(=O)N(C)[C@H](/C=C(\C)C(=O)O)C(C)C)C(C)C)C(C)(C)c1cn(C)c2ccccc12
7. CN[C@H](C(=O)N[C@H](C(=O)N[C@H](/C=C(\C)C(=O)O)C(C)C)C(C)(C)C)C(C)(C)c1cn(C)c2ccccc12

RESULT:
1. 0.5
2. 0.5
3. 30
4. 2
5. 1
6. 0.5
7. 0.15
